Recorded pIC50 for compounds tested on Xanthine dehydrogenase/oxidase (Homo sapiens), drawn from a number of studies.
Sequence (P47989 whole entry): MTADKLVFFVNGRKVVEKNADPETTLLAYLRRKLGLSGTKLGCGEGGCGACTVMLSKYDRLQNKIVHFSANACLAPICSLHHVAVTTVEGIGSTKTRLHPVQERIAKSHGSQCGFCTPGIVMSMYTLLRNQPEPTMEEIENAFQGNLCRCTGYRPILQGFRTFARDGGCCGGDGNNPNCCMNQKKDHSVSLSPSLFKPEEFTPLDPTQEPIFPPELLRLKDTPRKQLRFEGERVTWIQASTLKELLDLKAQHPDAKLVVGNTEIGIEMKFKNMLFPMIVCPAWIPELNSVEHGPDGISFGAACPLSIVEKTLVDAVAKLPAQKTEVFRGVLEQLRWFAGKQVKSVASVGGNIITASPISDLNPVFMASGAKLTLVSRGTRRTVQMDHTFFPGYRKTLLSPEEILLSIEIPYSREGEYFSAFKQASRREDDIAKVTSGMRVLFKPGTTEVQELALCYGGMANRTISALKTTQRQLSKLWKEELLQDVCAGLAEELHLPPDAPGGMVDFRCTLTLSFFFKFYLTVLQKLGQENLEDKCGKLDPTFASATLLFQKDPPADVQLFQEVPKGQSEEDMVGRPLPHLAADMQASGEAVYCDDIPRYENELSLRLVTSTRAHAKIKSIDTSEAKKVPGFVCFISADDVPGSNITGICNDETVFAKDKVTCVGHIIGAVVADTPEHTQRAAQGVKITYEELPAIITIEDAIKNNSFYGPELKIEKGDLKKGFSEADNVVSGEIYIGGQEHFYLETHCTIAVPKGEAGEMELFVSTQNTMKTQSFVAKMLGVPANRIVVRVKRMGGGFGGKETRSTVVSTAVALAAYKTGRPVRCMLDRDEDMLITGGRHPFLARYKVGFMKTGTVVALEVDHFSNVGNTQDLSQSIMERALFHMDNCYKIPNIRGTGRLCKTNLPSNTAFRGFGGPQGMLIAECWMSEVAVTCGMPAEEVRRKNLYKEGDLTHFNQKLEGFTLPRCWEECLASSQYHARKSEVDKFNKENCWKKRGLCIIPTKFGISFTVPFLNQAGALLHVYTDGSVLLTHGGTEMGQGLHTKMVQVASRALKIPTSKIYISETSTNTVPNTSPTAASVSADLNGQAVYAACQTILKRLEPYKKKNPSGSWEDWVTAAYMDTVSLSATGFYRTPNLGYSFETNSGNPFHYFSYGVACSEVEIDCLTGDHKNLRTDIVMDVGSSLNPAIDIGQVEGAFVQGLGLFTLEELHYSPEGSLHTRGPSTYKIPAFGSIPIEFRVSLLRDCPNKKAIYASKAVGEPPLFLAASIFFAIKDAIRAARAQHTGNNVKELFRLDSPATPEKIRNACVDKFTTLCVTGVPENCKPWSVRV
Here pIC50 is given on a logarithmic scale as minus log10 of the concentration in mol/L.

Some solved entries appear below for comparison.
[[record]]
samplesmiles = "COc1cc2oc(=O)ccc2cc1O"
quantitativeresult = 3.86

[[record]]
samplesmiles = "CC(C)Cc1ccc(-c2cc(O)nc(N)n2)cc1"
quantitativeresult = 5.31


# input for lookup
### Prompt Param readout = pIC50; param system = Xanthine dehydrogenase/oxidase (Homo sapiens); param query = COc1ccc(S(=O)(=O)N/N=C(\C)c2nc3ccccc3o2)cc1 ; response: value
### Response 5.38

---

Recorded IC50 for molecules tested on Xanthine dehydrogenase/oxidase (Homo sapiens), drawn from a number of studies.
Answer with a number only, understood to be in µM.

Some solved entries appear below for comparison.
[[record]]
molecule = "CC(C)COc1ccc(-c2cc(=O)[nH]c(N)n2)cc1C(N)=O"
quantitativeresult = 1.92

[[record]]
molecule = "COc1c(O)cc2oc(-c3ccc(O)c(O)c3)c(OC)c(=O)c2c1O"
quantitativeresult = 36

[[record]]
molecule = "CN1CCN(CCCOc2ccc3c(=O)c4ccc(O)cc4oc3c2)CC1"
quantitativeresult = 44.3


# input for lookup
### Prompt Param readout = IC50; param system = Xanthine dehydrogenase/oxidase (Homo sapiens); param query = O=c1c2ccccc2oc2cc(OCCCN3CCNCC3)ccc12 ; response: value
### Response 109
